Source of measurements: ChEMBL document CHEMBL3421560

tested on: Staphylococcus aureus; experiment: Ratio of MBC for methicillin-susceptible Staphylococcus aureus ATCC 25923 to MIC for methicillin-susceptible Staphylococcus aureus ATCC 25923; format: functional
Property name: Ratio

Known Ratio results, listed for orientation:
[[record]]
test_smiles = "O=C(O)c1cn(C2CC2)c2cc(N3CCN(Cn4nc(-c5ccc(O)cc5)n(-c5ccc(Cl)cc5)c4=S)CC3)c(F)cc2c1=O"
endpoint_value = "<=4"

[[record]]
test_smiles = "COc1ccc(Cn2c(-c3ccccc3O)nn(CN3CCN(c4cc5c(cc4F)c(=O)c(C(=O)O)cn5C4CC4)CC3)c2=S)cc1"
endpoint_value = "<=4"

[[record]]
test_smiles = "O=C(O)c1cn(C2CC2)c2cc(N3CCN(Cn4nc(-c5ccc(O)cc5)n(-c5ccc(F)cc5)c4=S)CC3)c(F)cc2c1=O"
endpoint_value = "<=4"

[[record]]
test_smiles = "O=C(O)c1cn(C2CC2)c2cc(N3CCN(Cn4nc(-c5cccc(O)c5)n(-c5ccc(F)cc5)c4=S)CC3)c(F)cc2c1=O"
endpoint_value = "<=4"


Lab note: O=C(O)c1cn(C2CC2)c2cc(N3CCN(Cn4nc(-c5ccccc5O)n(-c5ccc(Cl)cc5)c4=S)CC3)c(F)cc2c1=O gave Ratio of <=4

get_value(item= COc1ccc(Cn2c(-c3cccc(O)c3)nn(CN3CCN(c4cc5c(cc4F)c(=O)c(C(=O)O)cn5C4CC4)CC3)c2=S)cc1 , readout=Ratio) returns <=4

Just so you know, measured Ratio for O=C(O)c1cn(C2CC2)c2cc(N3CCN(Cn4nc(-c5ccccc5O)n(Cc5ccccc5)c4=S)CC3)c(F)cc2c1=O came out at <=4

----------
This section presents compounds with their documented MIC values.
test system: Staphylococcus epidermidis; assay: Antimicrobial activity against Staphylococcus epidermidis ATCC 12228 after 18 hrs by broth microdilution method; format: functional; conditions: ATCC 12228, 18 h
// note: answer is a bare numeric in µM

[[record]]
test_smiles = "O=C(O)c1cn(C2CC2)c2cc(N3CCNCC3)c(F)cc2c1=O"
unit_info = "µM"
endpoint_value = 1.48


MIC in this record for O=C(O)c1cn(C2CC2)c2cc(N3CCN(Cn4nc(-c5ccc(O)cc5)n(-c5ccc(Cl)cc5)c4=S)CC3)c(F)cc2c1=O : 0.18

The measured MIC associated with O=C(O)c1cn(C2CC2)c2cc(N3CCN(Cn4nc(-c5ccccc5O)n(Cc5ccccc5)c4=S)CC3)c(F)cc2c1=O reads 0.38

Note to self: MIC recorded for O=C(O)c1cn(C2CC2)c2cc(N3CCN(Cn4nc(-c5ccccc5O)n(-c5ccccc5)c4=S)CC3)c(F)cc2c1=O was 0.098

Looking up COc1ccc(Cn2c(-c3ccc(O)cc3)nn(CN3CCN(c4cc5c(cc4F)c(=O)c(C(=O)O)cn5C4CC4)CC3)c2=S)cc1 , I see its MIC listed as 1.49

Record O=C(O)c1cn(C2CC2)c2cc(N3CCN(Cn4nc(-c5ccc(O)cc5)n(-c5ccc(F)cc5)c4=S)CC3)c(F)cc2c1=O , field MIC: 0.095

COc1ccc(Cn2c(-c3cccc(O)c3)nn(CN3CCN(c4cc5c(cc4F)c(=O)c(C(=O)O)cn5C4CC4)CC3)c2=S)cc1 yielded MIC of 0.091

Sample O=C(O)c1cn(C2CC2)c2cc(N3CCN(Cn4nc(-c5ccccc5O)n(Cc5ccc(F)cc5)c4=S)CC3)c(F)cc2c1=O ; MIC observed: 0.046
